# System: Mycobacterium avium 330/88
# ASSAY_OVERVIEW: MIC, micro method in Šula's semisynthetic medium, M. avium
# Format: cell-based
# CONDITION_LABEL: 330/88, read-out: MIC M. avium
Consider the following molecules; for each one, report its MIC.

Sample records with MIC:
SMILES_ENTRY: CCNc1nnc(-c2cc([N+](=O)[O-])cc([N+](=O)[O-])c2)o1
MIC: > 1000 µM
--
SMILES_ENTRY: CCCCCCCCCNC(=O)NNC(=O)c1cc([N+](=O)[O-])cc([N+](=O)[O-])c1
MIC: 125 to 250 µM
--
SMILES_ENTRY: CCCCCCNc1nnc(-c2cc([N+](=O)[O-])cc([N+](=O)[O-])c2)o1
MIC: 1 µM

Quick one: give me MIC for each item below, same order please.
1. CCCCCCNC(=O)NNC(=O)c1cc([N+](=O)[O-])cc([N+](=O)[O-])c1
2. CCCCCCCCNC(=O)NNC(=O)c1cc([N+](=O)[O-])cc([N+](=O)[O-])c1

// result
["125 to 250 µM", "125 to 250 µM"]

###

# Tested on: Mtb 331/88 (i.e., H37Rv)
# ASSAY_OVERVIEW: MIC, micro method in Šula's semisynthetic medium, drug-susceptible Mtb
# Assay type: cell-based, Mycobacterium tuberculosis
# CONDITION_LABEL: Mycobacterium tuberculosis, H37RV, 504 h; 21 days
PROPERTY: MIC

Please review the following examples before continuing.
SMILES_ENTRY: COc1ccc(CNc2nnc(-c3cc([N+](=O)[O-])cc([N+](=O)[O-])c3)s2)cc1
TGT: Mtb 331/88 (i.e., H37Rv)
MIC: ≤ 0.03 µM
--
SMILES_ENTRY: CCNC(=O)NNC(=O)c1cc([N+](=O)[O-])cc([N+](=O)[O-])c1
TGT: Mtb 331/88 (i.e., H37Rv)
MIC: > 32 µM

// query Consider the compound "CCCCCCCCCCCCCCCCCNc1nnc(-c2cc([N+](=O)[O-])cc([N+](=O)[O-])c2)o1" and give its recorded MIC.
// result > 32 µM

###

# Tested on: HepG2 cells
# ASSAY_OVERVIEW: Cytotoxicity on HepG2 cell line (CellTiter 96)
# Assay type: cell-based, human
# CONDITION_LABEL: Homo sapiens, HepG2, 24 h, read-out: IC50 HepG2
pIC50: −log10 of the molar value.
PROPERTY: pIC50

Examples with answers:
COMPOUND: CCCCCCCCCCCNC(=O)NNC(=O)c1cc([N+](=O)[O-])cc([N+](=O)[O-])c1 [Compound 4k]
pIC50: > 4.00
--
COMPOUND: CCCCCCCCCCCCCCCNc1nnc(-c2cc([N+](=O)[O-])cc([N+](=O)[O-])c2)o1 [Compound 5o]
pIC50: < 4.30
--
COMPOUND: CCCCCCCCCCCCCCCNC(=O)NNC(=O)c1cc([N+](=O)[O-])cc([N+](=O)[O-])c1 [Compound 4o]
pIC50: > 4.00

List pIC50 for every entry below, keeping the order given.
1. CCCCCCNc1nnc(-c2cc([N+](=O)[O-])cc([N+](=O)[O-])c2)o1 [Compound 5f]
2. CCCCCCCNc1nnc(-c2cc([N+](=O)[O-])cc([N+](=O)[O-])c2)o1 [Compound 5g]
3. CCCCCCCCCNc1nnc(-c2cc([N+](=O)[O-])cc([N+](=O)[O-])c2)o1 [Compound 5i]
4. CCCCCNc1nnc(-c2cc([N+](=O)[O-])cc([N+](=O)[O-])c2)o1 [Compound 5e]
5. CCCCCCCCCCCCNc1nnc(-c2cc([N+](=O)[O-])cc([N+](=O)[O-])c2)o1 [Compound 5l]
6. CCCCCCCCCCCNc1nnc(-c2cc([N+](=O)[O-])cc([N+](=O)[O-])c2)o1 [Compound 5k]
7. CCCCCCCCNc1nnc(-c2cc([N+](=O)[O-])cc([N+](=O)[O-])c2)o1 [Compound 5h]
8. CCCCCCCCCCNc1nnc(-c2cc([N+](=O)[O-])cc([N+](=O)[O-])c2)o1 [Compound 5j]

// result
1. < 4.00
2. < 4.00
3. < 4.00
4. < 3.60
5. < 4.30
6. < 4.30
7. < 4.00
8. < 4.00

Take each entry in turn and give its pIC50.
1. CCCCNc1nnc(-c2cc([N+](=O)[O-])cc([N+](=O)[O-])c2)o1 [Compound 5d]
2. CCCCCCCCCCCCCCNc1nnc(-c2cc([N+](=O)[O-])cc([N+](=O)[O-])c2)o1 [Compound 5n]
3. CCCCCCCCCCCCCNc1nnc(-c2cc([N+](=O)[O-])cc([N+](=O)[O-])c2)o1 [Compound 5m]

// result
1: < 3.60; 2: < 4.30; 3: < 4.30
